Test system: S. epidermidis
Assay: MIC, broth microdilution (CLSI)
Type: cell-based, Staphylococcus epidermidis
Details: Staphylococcus epidermidis, strain RP62A; read-out: minimum inhibitory concentration

{"chemical.smiles": "O=C(COC(=O)Cc1coc2ccc3ccccc3c12)Nc1nnc(-c2ccc(S(F)(F)(F)(F)F)cc2)o1", "qual": "=", "MIC (µg/mL)": 0.5}
{"chemical.smiles": "O=C(COC(=O)Cc1coc2ccc3ccccc3c12)Nc1nnc(-c2ccccc2)s1", "qual": ">", "MIC (µg/mL)": 64}
{"chemical.smiles": "COc1ccc2c(ccc3occ(CC(=O)OCC(=O)Nc4nnc(-c5ccccc5)o4)c32)c1", "qual": "=", "MIC (µg/mL)": 32}
{"chemical.smiles": "O=C(COC(=O)Cc1coc2ccc3ccccc3c12)Nc1nnc(-c2cccc(Cl)c2)o1", "qual": "=", "MIC (µg/mL)": 64}
